FYI, the data here is from paper PMC9032516.

test system: ZIKV^BR; test: ZIKV inactivation assay (plaque assay on Vero cells); type: cell-based, Zika virus; conditions: 10^5 PFU ZIKV^BR pre-treated 1 h at 37 °C in the dark with 0.01–50 µM, titrated by plaque assay on Vero cells, three independent replicates
Structures can show the parent of a compound that is named as a salt.
measured_attribute: IC50

Request: I am curious: what IC50 value has been reported for CCC1=C(C)c2cc3[nH]c(cc4[nH]c(cc5nc(cc1n2)C(C)=C5CC)c(C)c4CCC(=O)O)c(CCC(=O)O)c3C [MP, Mesoporphyrin IX dihydrochloride] ?
Result: > 50 µM

----------
experiment: Serum stability; format: in vitro ADME; details: human serum diluted 1:1 (v/v) with HEPES buffer; 0.05 mM in 1:1 human serum / HEPES buffer (10 mM, NaCl 150 mM, pH 7.8), 37 °C, methanol precipitation, HPLC, three independent replicates; read-out: t1/2 in human serum (converted)
No end group written: not given here.
measured_attribute: half-life at 0.05 mM (min)
Report the figure in min without appending any unit label.

Request: I am curious: what half-life at 0.05 mM value has been reported for VQQLTKRFSL-NH2 [P1] ?
Result: 44
